# TARGET: LCK (Homo sapiens)
# Sequence (P06239 whole entry, species assumed): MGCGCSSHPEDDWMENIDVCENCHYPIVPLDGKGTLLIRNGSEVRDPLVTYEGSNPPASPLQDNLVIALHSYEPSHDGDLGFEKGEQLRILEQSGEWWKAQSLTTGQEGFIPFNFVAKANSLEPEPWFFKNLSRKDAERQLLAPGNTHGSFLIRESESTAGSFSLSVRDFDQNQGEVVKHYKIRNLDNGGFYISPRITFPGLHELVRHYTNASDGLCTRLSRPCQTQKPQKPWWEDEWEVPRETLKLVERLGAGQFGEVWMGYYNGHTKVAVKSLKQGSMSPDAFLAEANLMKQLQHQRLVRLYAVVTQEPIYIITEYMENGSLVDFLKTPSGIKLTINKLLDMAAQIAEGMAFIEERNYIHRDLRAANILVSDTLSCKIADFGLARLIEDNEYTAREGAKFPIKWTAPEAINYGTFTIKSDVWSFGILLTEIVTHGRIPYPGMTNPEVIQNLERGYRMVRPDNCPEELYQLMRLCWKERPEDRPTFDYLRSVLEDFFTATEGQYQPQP
MEASURED METRIC: pIC50
Field pIC50 (float): negative decimal logarithm of the concentration in molar.

**Query** Reported pIC50 for `CN(C)S(=O)(=O)c1ccc2c(c1)C(=CC1=CC3=C(CCCC3)C1)C(=O)N2` : what is it?
**Result** 6.30

* * *

# TARGET: EGFR (Homo sapiens, UniProt P00533)
# Sequence (P00533 25-1210): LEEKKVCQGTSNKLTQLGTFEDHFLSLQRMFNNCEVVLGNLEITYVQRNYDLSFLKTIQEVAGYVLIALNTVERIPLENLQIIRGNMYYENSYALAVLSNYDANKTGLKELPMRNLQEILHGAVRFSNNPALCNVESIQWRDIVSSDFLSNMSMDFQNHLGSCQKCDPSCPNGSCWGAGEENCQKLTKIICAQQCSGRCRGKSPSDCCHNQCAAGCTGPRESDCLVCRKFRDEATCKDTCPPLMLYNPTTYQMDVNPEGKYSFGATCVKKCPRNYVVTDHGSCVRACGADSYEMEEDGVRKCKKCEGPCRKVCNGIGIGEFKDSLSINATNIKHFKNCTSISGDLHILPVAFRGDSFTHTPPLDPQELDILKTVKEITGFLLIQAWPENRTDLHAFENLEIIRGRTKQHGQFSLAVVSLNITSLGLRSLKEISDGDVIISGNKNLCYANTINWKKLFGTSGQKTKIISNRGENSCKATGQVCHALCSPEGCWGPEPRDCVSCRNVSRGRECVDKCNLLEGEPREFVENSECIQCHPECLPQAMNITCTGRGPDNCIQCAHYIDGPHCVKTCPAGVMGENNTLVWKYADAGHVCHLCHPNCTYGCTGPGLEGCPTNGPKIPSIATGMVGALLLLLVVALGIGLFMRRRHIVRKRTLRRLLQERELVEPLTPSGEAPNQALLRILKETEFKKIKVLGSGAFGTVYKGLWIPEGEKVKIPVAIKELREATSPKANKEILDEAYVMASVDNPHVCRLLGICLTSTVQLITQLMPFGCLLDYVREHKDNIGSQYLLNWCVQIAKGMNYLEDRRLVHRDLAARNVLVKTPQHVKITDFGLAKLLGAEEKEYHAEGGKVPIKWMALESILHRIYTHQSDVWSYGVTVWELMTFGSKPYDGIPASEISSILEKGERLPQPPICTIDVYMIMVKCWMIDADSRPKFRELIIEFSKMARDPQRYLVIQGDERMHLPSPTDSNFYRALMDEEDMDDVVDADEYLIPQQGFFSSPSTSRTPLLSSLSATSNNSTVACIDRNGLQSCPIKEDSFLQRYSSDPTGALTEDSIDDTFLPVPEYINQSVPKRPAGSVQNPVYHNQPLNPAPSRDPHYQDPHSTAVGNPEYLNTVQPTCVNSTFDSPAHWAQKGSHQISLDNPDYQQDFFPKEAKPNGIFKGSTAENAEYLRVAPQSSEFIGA
# ASSAY NAME: EGF Receptor ELISA (NIH 3T3/C7 cells)
pIC50: −log10 of the molar value.
Recorded pIC50 values for a group of molecules are listed next.

CN(C)S(=O)(=O)c1ccc2c(c1)C(=CC1=CC3=C(CCCC3)C1)C(=O)N2 | < 4.00

Okay, now this molecule:
**Query** Reported pIC50 for `NS(=O)(=O)c1ccc2c(c1)C(=CC1=CC3=C(CCCC3)C1)C(=O)N2` : what is it?
**Result** < 4.00

* * *

# TARGET: FAK (Homo sapiens, UniProt Q05397)
# Sequence (Q05397 whole entry, species assumed): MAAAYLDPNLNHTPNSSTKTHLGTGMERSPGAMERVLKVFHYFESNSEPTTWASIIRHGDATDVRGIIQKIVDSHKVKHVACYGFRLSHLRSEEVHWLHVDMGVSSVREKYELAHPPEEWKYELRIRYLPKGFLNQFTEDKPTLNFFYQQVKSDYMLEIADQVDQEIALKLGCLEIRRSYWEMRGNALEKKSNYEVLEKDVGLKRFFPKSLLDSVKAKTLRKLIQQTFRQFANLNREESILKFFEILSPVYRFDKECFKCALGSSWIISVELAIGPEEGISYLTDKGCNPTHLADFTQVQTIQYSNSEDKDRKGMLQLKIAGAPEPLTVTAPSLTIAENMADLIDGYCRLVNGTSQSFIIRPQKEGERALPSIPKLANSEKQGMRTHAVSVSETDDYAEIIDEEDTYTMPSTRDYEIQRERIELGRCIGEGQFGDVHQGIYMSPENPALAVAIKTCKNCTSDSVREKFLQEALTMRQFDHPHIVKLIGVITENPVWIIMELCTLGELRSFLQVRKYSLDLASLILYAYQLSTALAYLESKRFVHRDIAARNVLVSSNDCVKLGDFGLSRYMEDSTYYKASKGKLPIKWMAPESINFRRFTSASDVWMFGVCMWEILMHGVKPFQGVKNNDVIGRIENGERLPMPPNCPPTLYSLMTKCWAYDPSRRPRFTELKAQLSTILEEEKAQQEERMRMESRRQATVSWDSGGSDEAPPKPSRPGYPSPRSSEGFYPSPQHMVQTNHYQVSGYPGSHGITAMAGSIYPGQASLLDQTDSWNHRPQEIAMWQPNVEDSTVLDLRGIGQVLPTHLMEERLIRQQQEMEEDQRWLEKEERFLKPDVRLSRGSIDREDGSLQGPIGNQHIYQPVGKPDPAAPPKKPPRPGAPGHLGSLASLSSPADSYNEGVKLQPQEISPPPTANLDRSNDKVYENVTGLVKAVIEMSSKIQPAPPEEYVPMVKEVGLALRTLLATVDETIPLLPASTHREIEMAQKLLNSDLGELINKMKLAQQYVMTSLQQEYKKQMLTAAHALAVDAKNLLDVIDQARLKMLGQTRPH
pIC50: −log10 of the molar value.
MEASURED METRIC: pIC50

**Query** Look up pIC50 with FAK (Homo sapiens, UniProt Q05397) for this compound: `CN(C)S(=O)(=O)c1ccc2c(c1)C(=CC1=CC3=C(CCCC3)C1)C(=O)N2`
**Result** < 5.00

* * *

# Tested on: HUV-EC-C cells
# ASSAY NAME: HUV-EC-C Assay, VEGF (3H-thymidine incorporation)
# Type: cell-based, human
# TEST CONTEXT: read-out: HUV-EC-C (ATCC) VEGF
# From the text: IC50 refers to the amount (in micromoles, μM) of compound required to achieve 50% inhibition of the activity of the particular kinase being tested as compared to the activity of an untreated control. The cellular/biologic assays described herein measure the amount of DNA made in response to activation of a test kinase, which is a general measure of a proliferative response. […]
MEASURED METRIC: IC50 (nM)
I only need the number, in nM, no unit after it.

**Query** Reported IC50 for `NS(=O)(=O)c1ccc2c(c1)C(=CC1=CC3=C(CCCC3)C1)C(=O)N2` : what is it?
**Result** 1070

* * *

# TARGET: SRC (Gallus gallus)
MEASURED METRIC: pIC50
Field pIC50 (float): negative decimal logarithm of the concentration in molar.

NS(=O)(=O)c1ccc2c(c1)C(=CC1=CC3=C(CCCC3)C1)C(=O)N2 | 6.10

Okay, now this compound:
**Query** Reported pIC50 for `CN(C)S(=O)(=O)c1ccc2c(c1)C(=CC1=CC3=C(CCCC3)C1)C(=O)N2` : what is it?
**Result** 7.00
